Where do these numbers come from? They come from patent US9169290B2.

System: C. krusei
Type: cell-based, Candida krusei
CONDITIONS_USED: C. krusei strain NCPF3953
METRIC_NAME: MIC (µM)

molecular_string=CC(=O)N[C@@H](CCCNC(=N)N)C(=O)N[C@@H](CCCNC(=N)N)C(=O)N[C@@H](CCCNC(=N)N)C(=O)N[C@@H](CCCNC(=N)N)C(=O)N[C@@H](CCCNC(=N)N)C(=O)N[C@@H](CCCNC(=N)N)C(=O)N[C@@H](CCCNC(=N)N)C(=O)N[C@@H](CCCNC(=N)N)C(=O)N[C@@H](CCCNC(=N)N)C(=O)N[C@@H](CCCNC(=N)N)C(=O)N[C@@H](CCCNC(=N)N)C(=O)N[C@@H](CCCNC(=N)N)C(=O)N[C@@H](CCCNC(=N)N)C(N)=O readout_number=8
